- Test system: SARS-CoV-2
- protocol_notes: Antiviral activity against SARS-CoV-2 B.1 lineage isolate infected in human Calu-3 cells assessed as inhibition of viral replication at 10 uM infected with cells for 1 hr followed by compound addition and measured 24 hrs post infection by crystal violet staining based PFU assay relative to control
- Format: functional
- measurement_parameters: Severe acute respiratory syndrome coronavirus 2, B.1, Calu-3
Assign inhibition at 10 µM to each entry below.
Answers are plain numbers, in %.

I need inhibition at 10 µM for every entry listed below, if you could help.
1. COc1ccc(/C=C2\Oc3cc(OC)ccc3C2=O)cc1
2. O=C1/C(=C/c2ccc(Cl)cc2)Oc2ccccc21
3. COc1ccc(/C=C2\Oc3cc(O)cc(O)c3C2=O)cc1

Result ::
[94.8, 68.8, 68.4]

I need inhibition at 10 µM for every entry listed below, if you could help.
1. COc1cc(/C=C2\Oc3ccccc3C2=O)cc(OC)c1OC
2. COCOc1cc(/C=C2\Oc3ccccc3C2=O)ccc1OC

Result ::
1: 66.4; 2: 97.6

---

Assign inhibition at 1 µM to each entry below.
- Tested on: SARS-CoV-2
- protocol_notes: Antiviral activity against SARS-CoV-2 B.1 lineage isolate infected in human Calu-3 cells assessed as inhibition of viral replication at 1 uM infected with cells for 1 hr followed by compound addition and measured 24 hrs post infection by crystal violet staining based PFU assay relative to control
- Format: functional
- measurement_parameters: Severe acute respiratory syndrome coronavirus 2, B.1, Calu-3

// solved cases for inhibition at 1 µM follow
>>> print(df.to_string())
                                   molecule       readout_label  observed_value
0       COc1ccc(/C=C2\Oc3cc(OC)ccc3C2=O)cc1  inhibition at 1 µM           46.5%
1       COCOc1cc(/C=C2\Oc3ccccc3C2=O)ccc1OC  inhibition at 1 µM           60.3%
2      COc1ccc2c(c1)O/C(=C\c1ccc(O)cc1)C2=O  inhibition at 1 µM             25%
3  COCOc1ccc2c(c1OCOC)O/C(=C\c1ccc(OC)cc1)C2=O  inhibition at 1 µM            < 1%
4  COc1ccc(/C=C2\Oc3ccccc3C2=O)cc1 [4'-METHOXY-AURONE]  inhibition at 1 µM           29.2%
5    COc1ccc(/C=C2\Oc3cc4c(cc3C2=O)OCO4)cc1  inhibition at 1 µM           32.5%

I need inhibition at 1 µM for every entry listed below, if you could help.
1. COc1ccc2c(c1)O/C(=C\c1ccccc1)C2=O
2. O=C1/C(=C/c2ccccc2)Oc2ccccc21 [(Z)-AURONE]
3. COc1cccc2c1C(=O)/C(=C/c1ccccc1)O2
4. O=C1/C(=C/c2ccc3c(c2)OCO3)Oc2ccccc21
5. COCOc1cc(/C=C2\Oc3cc(OC)ccc3C2=O)ccc1OC
6. COCOc1ccc2c(c1)O/C(=C\c1ccc(OC)cc1OCOC)C2=O
7. COCOc1cc(OCOC)c2c(c1)O/C(=C\c1ccc(OC)cc1)C2=O

Result ::
1. 59.1%
2. < 1%
3. < 1%
4. 69.5%
5. 34.1%
6. 82.5%
7. < 1%

---

- protocol_notes: Cytotoxicity against human Calu-3 cells assessed as reduction in cell viability incubated for 72 hrs by methylene blue assay
- Format: toxicity, cell-based
Assign CC50 at 72 h to each entry below.

In [3]: df
Out[3]:
                         chemical_structure  observed_value
0  COCOc1ccc2c(c1)O/C(=C\c1ccc(OC)cc1OCOC)C2=O          976 µM

I need CC50 at 72 h for every entry listed below, if you could help.
1. COc1cc(/C=C2\Oc3ccccc3C2=O)cc(OC)c1OC
2. COCOc1cc(OC)ccc1/C=C1\Oc2ccccc2C1=O
3. COc1ccc(/C=C2\Oc3cc(OCc4ccccc4)ccc3C2=O)cc1
4. COc1ccc(/C=C2\Oc3cc4c(cc3C2=O)OCO4)cc1

Result ::
["> 250 µM", "> 250 µM", "> 300 µM", "> 1000 µM"]

I need CC50 at 72 h for every entry listed below, if you could help.
1. COc1ccc(/C=C2\Oc3cc(OCc4ccc(F)cc4)ccc3C2=O)cc1
2. COc1ccc(/C=C2\Oc3cc(OC(F)F)ccc3C2=O)cc1
3. COCOc1ccc2c(c1)O/C(=C\c1ccc(OC)cc1)C2=O
4. COCOc1cc(/C=C2\Oc3cc(OC)ccc3C2=O)ccc1OC

Result ::
> 300 µM
> 300 µM
> 1000 µM
> 1000 µM

---

- Tested on: SARS-CoV-2
- protocol_notes: Antiviral activity against SARS-CoV-2 B.1 lineage isolate infected in human Calu-3 cells assessed as inhibition of viral replication at 10 uM infected with cells for 1 hr followed by compound addition and measured 24 hrs post infection by crystal violet staining based PFU assay relative to control
- Format: functional
- measurement_parameters: Severe acute respiratory syndrome coronavirus 2, B.1, Calu-3
Label y when inhibition at 10 µM is at or above 90%; anything below gets n.

Here's what some known entries look like.
In [3]: df
Out[3]:
                         chemical_structure  qualitative_label
0     COc1ccc(/C=C2\Oc3c(ccc(O)c3O)C2=O)cc1                  n
1      O=C1/C(=C/c2ccc3c(c2)OCO3)Oc2ccccc21                  n
2  COCOc1ccc2c(c1)O/C(=C\c1ccc(OC)cc1OCOC)C2=O                  y

Now take the following molecule into account.
Query :: Is inhibition at 10 µM at least 90%? Consider COCOc1ccc2c(c1)O/C(=C\c1ccc(OC)c(OCOC)c1)C2=O
Result :: y

---

Assign inhibition at 10 µM to each entry below.
- System: SARS-CoV-2
- protocol_notes: Antiviral activity against SARS-CoV-2 B.1 lineage isolate infected in human Calu-3 cells assessed as inhibition of viral replication at 10 uM infected with cells for 1 hr followed by compound addition and measured 24 hrs post infection by crystal violet staining based PFU assay relative to control
- Type: functional
- measurement_parameters: Severe acute respiratory syndrome coronavirus 2, B.1, Calu-3
Numbers only, in %.

                                  molecule  unit_info  observed_value
0  COc1ccc(/C=C2\Oc3cc(OC(F)F)ccc3C2=O)cc1          %            97.1

I need inhibition at 10 µM for every entry listed below, if you could help.
1. O=C1/C(=C/c2ccccc2)Oc2ccccc21 [(Z)-AURONE]
2. COCOc1ccc2c(c1OCOC)O/C(=C\c1ccc(OC)cc1)C2=O
3. COc1ccc(/C=C2\Oc3cc4c(cc3C2=O)OCO4)cc1
4. COc1ccc2c(c1)O/C(=C\c1ccccc1)C2=O

Result ::
1: 81.2; 2: 58.2; 3: 95.8; 4: 99.7

I need inhibition at 10 µM for every entry listed below, if you could help.
1. COCOc1cc(OC)ccc1/C=C1\Oc2ccccc2C1=O
2. COc1ccc(/C=C2\Oc3cc(OCc4ccccc4)ccc3C2=O)cc1

Result ::
1. 58.3
2. 91

---

Assign inhibition at 1 µM to each entry below.
- Test system: SARS-CoV-2
- protocol_notes: Antiviral activity against SARS-CoV-2 B.1 lineage isolate infected in human Calu-3 cells assessed as inhibition of viral replication at 1 uM infected with cells for 1 hr followed by compound addition and measured 24 hrs post infection by crystal violet staining based PFU assay relative to control
- Assay type: functional
- measurement_parameters: Severe acute respiratory syndrome coronavirus 2, B.1, Calu-3
Give bare numbers, in %.

>>> print(df.to_string())
                         chemical_structure  unit_info  observed_value
0   COCOc1ccc2c(c1)O/C(=C\c1ccc(OC)cc1)C2=O          %            77.6
1  COc1ccc(/C=C2\Oc3cc(OCc4ccc(F)cc4)ccc3C2=O)cc1          %            14.5
2  COCOc1ccc2c(c1)O/C(=C\c1ccc(OC)c(OCOC)c1)C2=O          %              77
3       COc1ccc(/C=C2\Oc3cc(O)ccc3C2=O)cc1O          %            70.4
4   COc1ccc(/C=C2\Oc3cc(OC(F)F)ccc3C2=O)cc1          %            69.9
5  COc1ccc(/C=C2\Oc3cc(OCc4ccccc4)ccc3C2=O)cc1          %            36.1

From here, focus on the item given below.
Query :: State the recorded inhibition at 1 µM for this entry: COc1ccc(/C=C2\Oc3c(ccc(O)c3O)C2=O)cc1
Result :: 25.9
